Biological target: RSV F on RSV subtype B virus (mKate-RSV B 18537) (respiratory syncytial virus B 18537, UniProt P13843 26-574)
Sequence (P13843 26-574): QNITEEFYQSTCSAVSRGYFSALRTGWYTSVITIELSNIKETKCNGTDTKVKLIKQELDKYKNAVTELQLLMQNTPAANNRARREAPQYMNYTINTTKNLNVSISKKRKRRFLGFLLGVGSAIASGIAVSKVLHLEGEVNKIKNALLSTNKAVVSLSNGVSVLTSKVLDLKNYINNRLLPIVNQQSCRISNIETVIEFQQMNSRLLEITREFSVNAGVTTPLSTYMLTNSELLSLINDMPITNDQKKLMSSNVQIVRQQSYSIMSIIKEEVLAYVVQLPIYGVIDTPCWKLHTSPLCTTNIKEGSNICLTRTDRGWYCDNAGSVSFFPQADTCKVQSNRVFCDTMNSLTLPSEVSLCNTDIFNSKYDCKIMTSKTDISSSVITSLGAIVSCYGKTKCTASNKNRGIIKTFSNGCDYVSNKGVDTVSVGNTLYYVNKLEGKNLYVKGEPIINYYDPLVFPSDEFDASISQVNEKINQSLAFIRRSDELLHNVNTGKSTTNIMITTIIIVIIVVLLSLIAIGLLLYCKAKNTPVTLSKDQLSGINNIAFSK
Test: cell-based or functional assay
REPORTED PROPERTY: Neut IC50 subtype B
In your response, the unit should come after the numeric value.

Given the binder ADI-14335 (antibody, V domains shown, full-length IgG; also called Ab 3) VH: EVQLVESGGGLVQPGRSLRLSCTASGFTFGDYAMSWVRQAPGKGLEWVGFIRSNAFGGTSEYAASVKGRFTISRDDSKSIAYLQMNSLKTEDTAVYYCTRDGIHDYGDSYYYYGMDVWGQGTTVTVSS VL: DIQLTQSPSSLSASVGDRVTITCRASQTVTTYLNWYQQKPGKAPKLLIYGASSLQSGVPSRFSGSGSGTDFTLTINSLQPEDFATYYCQQTYSTVTFGPGTKVEIK , what is its reported Neut IC50 subtype B?
0.1 µg/mL

I would be grateful if you could share the reported Neut IC50 subtype B for ADI-24792 (antibody, V domains shown, full-length IgG) VH: EVQLVESGGGLVKPGGSLRLSCAASGFIFSDYYMSWIRQAPGKGLEWVSNISGGSSFTNYADSVKGRFTISRDNAKNSLYLQMNSLRAEDTAVYYCARDLGYCSSNSCLDAFDIWGQGTTVTVSS VL: QSVLTQPPSVSGAPGQRVTISCTGSSSNIGAGYDVHWYQQLPGTAPKLLIYGNTNRPSGVPDRFSGSRSGTSASLAITGLQAEDEADYYCQSYDSSLSGSLFGGGTKVTVL .
0.19 µg/mL

Report Neut IC50 subtype B for ADI-19431 (antibody, V domains shown, full-length IgG) VH: EVQLVESGGGLVKPGGSLRLSCAASGFTFSSYSMNWVRQAPGKGLEWVSSISSSSSYIYYADSVKGRFTISRDNAKNSLYLQMNSLRAEDTAVYYCARELYDYVWGSYRDYWGQGTLVTVSS VL: QPGLTQPPSVSGAPGQRVTISCTGSSSNIGAGYDVHWYQQLPGTAPKLLIYGNSNRPSGVPDRFSGSKSGTSASLAITGLQAEDEADYYCQSYDSSLSGSVFGGGTKVTVL please.
0.17 µg/mL

What value of measured Neut IC50 subtype B is listed for ADI-19421 (antibody, V domains shown, full-length IgG) VH: EVQLLESGGGVVQPGRSLRLSCAASGFTFSSYGMHWVRQAPGKGLEWVAVISYDGSNKYYADSVKGRFTISRDNSKNTLYLQMNSLRAEDTAVYYCAKDIHHVLRFLDPDYWGQGTLVTVSS VL: QSVLIQPASVSGFPGQSITISCTGTSSDVGGYNYVSWYQQHPGKAPKLMIYEVSNRPSGVSNRFSGSKSGNTASLTISGLQAEDEADYYCSSYTSSSTLVFGGGTKLTVL ?
3.3 µg/mL

Which measured Neut IC50 subtype B value corresponds to ADI-14337 (antibody, V domains shown, full-length IgG; also called Ab 5) VH: EVQLVESGGGLVKPGGSLRLSCAASGFTFSSYSMNWVRQAPGKGLEWVSSISSSSSYIYYADSVKGRFTISRDNAKNSLYLQMNSLRAEDTAVYYCAREYYDSSGYTNWFDPWGQGTLVTVSS VL: QPVLTQPPSVSGAPGQRVTISCTGSSSNIGAGYDVHWYQQLPGTAPKLLIYGNSNRPSGVPDRFSGSKSGTSASLAITGLQAEDEADYYCQSYDSSLAWVFGGGTQLTVL ?
0.07 µg/mL

Given the binder ADI-24860 (antibody, V domains shown, full-length IgG; also called Ab 420) VH: EVQLLESGGGLVKPGGSLRLSCAASGLTFSDYYMSWIRQAPGKGLEWVSYISGGSSYSNYADSVKGRFTISRDNAKNSLYLQMNSLRAEDTAVYYCARGYCSGSSCYEAFDIWGQGTTVTVSS VL: SYVLTQPPSVSGAPGQRVTISCTGSSSNIGAGFDVHWYQQLPGTAPKLLIYGNSDRPSGVPDRFSGSKSGTSASLAITGLQAEDEADYYCQSYDSSLSGYVFGTGTKVTVL , what is its reported Neut IC50 subtype B?
0.09 µg/mL
